experiment: amyloid nucleation score (Sup35N fusion, yeast selection) (log enrichment); library NNK3; higher = more nucleation; inactive = no reads after selection;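 note: zero at mode of non-aggregating sequences after 7 days selection at 30°C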
Readout Type: amyloid nucleation score

>>> result("SNVVYMKYRMAVLVTLGICG")
"inactive"
>>> result("MWDIGGARAKDCEGLSVNCI")
"inactive"
>>> result("HRLTCELFTWMPAEVCVWAD")
"inactive"
>>> result("PLNMSRCTLALTLFVISFGW")
"inactive"
>>> result("YSEKDLIHRRIFVVNGRS")
1.13

Quick one: give me amyloid nucleation score for each item below, same order please.
1. HAAYGKCLQWFTRLVCYPVA
2. STWGEFVH
3. CFLRWNRFL
4. GQKDCYFLIMYIREVLNRYT

1: inactive; 2: inactive; 3: 0.106; 4: inactive
